target: human orexin-2 receptor (Homo sapiens (Human), UniProt O43614); assay: FLIPR Ca2+ Flux Assay, CHO cells expressing human orexin-2 receptor; settings: 70 pM Ala-6,12 orexin-A agonist, read-out: hOX2R FLIPR IC50
Sequence (O43614 whole entry): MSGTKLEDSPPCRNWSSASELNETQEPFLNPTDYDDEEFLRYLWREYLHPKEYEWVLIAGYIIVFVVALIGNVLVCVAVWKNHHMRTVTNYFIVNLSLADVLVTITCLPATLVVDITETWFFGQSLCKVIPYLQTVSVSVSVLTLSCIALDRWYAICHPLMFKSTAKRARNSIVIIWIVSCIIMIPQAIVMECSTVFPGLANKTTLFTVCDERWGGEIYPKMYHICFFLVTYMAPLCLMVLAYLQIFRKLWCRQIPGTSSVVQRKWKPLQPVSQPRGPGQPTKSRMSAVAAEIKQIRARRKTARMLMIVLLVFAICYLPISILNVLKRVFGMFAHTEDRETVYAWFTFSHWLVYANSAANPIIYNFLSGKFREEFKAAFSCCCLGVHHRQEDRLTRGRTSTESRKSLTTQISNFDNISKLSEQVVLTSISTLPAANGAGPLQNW
Lab note: cut-off is 40 nM. Strictly less in IC50 is class 1. Exactly 40 nM or more is class 0.

Worked examples follow.
[
  {
    "smilesData": "C[C@@H]1CC[C@@H](Oc2cc(C#N)ccn2)CN1C(=O)c1cccc(F)c1-n1nccn1",
    "qualitativeLabel": "class 1"
  },
  {
    "smilesData": "C[C@@H]1CC[C@@H](Oc2cc(C#N)ccn2)CN1C(=O)c1sccc1-c1ncccn1",
    "qualitativeLabel": "class 1"
  },
  {
    "smilesData": "C[C@@H]1CC[C@@H](Oc2cc(C#N)ccn2)CN1C(=O)c1ccccc1-n1ncnn1",
    "qualitativeLabel": "class 0"
  },
  {
    "smilesData": "C[C@@H]1CC[C@@H](Oc2cc(C#N)ccn2)CN1C(=O)c1cc(F)ccc1-c1ncccn1",
    "qualitativeLabel": "class 1"
  },
  {
    "smilesData": "C[C@@H]1CC[C@@H](Oc2cc(C#N)ccn2)CN1C(=O)c1c(F)cccc1-n1nccn1",
    "qualitativeLabel": "class 1"
  },
  {
    "smilesData": "C[C@@H]1CC[C@@H](Oc2cc(C#N)ccn2)CN1C(=O)c1cccc(F)c1-c1ncccn1",
    "qualitativeLabel": "class 0"
  }
]

Next:
Task: Does this compound meet the criterion IC50 < 40 nM? "Cc1ccc(C(=O)N2C[C@H](Oc3cc(C#N)ccn3)CC[C@H]2C)c(-n2nccn2)c1"
Output: class 1
